- assay-name: Toxicity against macrophages (unknown origin) assessed as reduction in cell viability after 24 to 48 hrs by MTT assay
- Assay type: cell-based, Macrophage

smiles-data: CN(C)C12CC3CC(C1)c1ccccc1C(C3)C2
CC50: 44.5 µM
--
smiles-data: NC12CC3CC(C1)c1ccccc1C(C3)C2
CC50: 58.5 µM
--
smiles-data: CN(C)C12CC3CC(O)(CC(C1)c1ccccc13)C2
CC50: > 100 µM
--
smiles-data: Cl.NC12CC3CC(Cl)(CC(C1)c1ccccc13)C2
CC50: 363 µM

----------
- Test system: Staphylococcus aureus
- assay-name: Antimicrobial activity against Staphylococcus aureus CECT 86 ATCC 12600 incubated for 18 hrs by microplate reader based assay
- Assay type: functional
- details: CECT 86 ATCC 12600, 18 h, read-out: MIC100
reported-metric: MIC

compound: CN(C)C12CC3CC(F)(CC(C1)c1cc([N+](=O)[O-])ccc13)C2 (centres undefined)
reported-metric: MIC
result: < 1250 µM
--
compound: NC12CC3CC(C1)c1ccccc1C(C3)C2
reported-metric: MIC
result: > 39 µM
--
compound: NC12CC3CC(F)(CC(C1)c1ccccc13)C2
reported-metric: MIC
result: < 312 µM
--
compound: CN(C)C12CC3CC(O)(CC(C1)c1ccccc13)C2
reported-metric: MIC
result: > 10000 µM
--
compound: CN(C)C12CC3CC(C1)c1ccccc1C(C3)C2
reported-metric: MIC
result: < 625 µM
--
compound: Nc1ccc2c(c1)C1CC3(N)CC2CC(F)(C1)C3 (centres undefined)
reported-metric: MIC
result: < 1250 µM
--
compound: NC12CC3CC(F)(CC(C1)c1cc([N+](=O)[O-])ccc13)C2 (centres undefined)
reported-metric: MIC
result: < 312 µM
--
compound: CN(C)C12CC3CC(Cl)(CC(C1)c1ccccc13)C2
reported-metric: MIC
result: < 1250 µM
--
compound: Cl.NC12CC3CC(Cl)(CC(C1)c1ccccc13)C2
reported-metric: MIC
result: < 156 µM
